Reference source: patent US9556159B2

- tested on: Recombinant human renin (Homo sapiens, UniProt P00797)
- Sequence (P00797 67-406): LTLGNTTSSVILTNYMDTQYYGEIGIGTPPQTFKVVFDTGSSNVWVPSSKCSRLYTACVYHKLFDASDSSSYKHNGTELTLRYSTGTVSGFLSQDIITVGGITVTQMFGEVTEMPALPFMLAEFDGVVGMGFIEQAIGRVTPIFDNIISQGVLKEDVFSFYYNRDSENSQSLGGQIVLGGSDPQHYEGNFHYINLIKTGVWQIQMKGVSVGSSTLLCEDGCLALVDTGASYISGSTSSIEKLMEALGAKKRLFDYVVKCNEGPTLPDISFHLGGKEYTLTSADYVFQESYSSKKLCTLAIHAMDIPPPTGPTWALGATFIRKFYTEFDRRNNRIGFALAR
- assay protocol: Inhibitory activity against human renin (fluorogenic peptide substrate)
- Type: biochemical
- test parameters: 50% inhibitory concentration (IC50) against human renin, 37° C. for 1 hour
property measured: IC50
Your reply should be a number followed by the unit it is expressed in.

COC(=O)NCCCc1cc([C@@H](C)N(C(=O)[C@H]2CNCCO2)C2CC2)nc2c1CCCC2 [Example 122] :: 0.2 nM

[Q] Identify measured IC50 corresponding to COC(=O)NCCCc1cc([C@H](C)N(C(=O)[C@H]2CNC[C@@H](CF)O2)C2CC2)nn1C1CCOCC1 [Example 340]
[A] 0.7 nM

[Q] Specify measured IC50 for COC(=O)NCCCc1nc([C@@H](C)N(C(=O)[C@H]2CNCCO2)C2CC2)sc1-c1cn[nH]c1 [Example 421] .
[A] 2.2 nM

[Q] Please report the measured IC50 for COC(=O)NCCCc1cc(C(C)N(C(=O)[C@H]2CNCCO2)C2CC2)sc1C1CC1 (some centres unmarked) [Example 396]
[A] 4.8 nM

====

- tested on: Recombinant human renin (Homo sapiens, UniProt P00797)
- assay protocol: Inhibitory activity against human renin (fluorogenic peptide substrate)
- Format: biochemical
- test parameters: 50% inhibitory concentration (IC50) against human renin, 37° C. for 1 hour
property measured: IC50 (nM)
Give just the number in nM; leave the unit off.

Field: example entries. Status: answers known.
CCc1cc([C@H](C)N(C(=O)[C@H]2CNC[C@@H](COC)O2)C2CC2)cc(CCCNC(=O)OC)n1 [Example 329] :: 0.8
CCOC[C@@H]1CNC[C@H](C(=O)N(C2CC2)[C@@H](C)c2cc(CCCNC(=O)OC)nc(OC)c2)O1 [Example 311] :: 0.4
COC(=O)NCCCn1nc([C@@H](C)N(C(=O)[C@H]2CNC[C@@H](C(=O)N(C)C)O2)C2CC2)c2ccc(C)nc21 [Example 256] :: 3.1
COC(=O)NCCCn1cc([C@@H](C)N(C(=O)[C@H]2CNCCO2)C2CC2)nc1-c1cccc(Cl)c1 [Example 175] :: 0.3
COC(=O)NCCCn1cc([C@@H](C)N(C(=O)[C@H]2CNCCO2)C2CC2)nc1C(C)(C)C [Example 215] :: 0.5

[Q] Report IC50 for COC(=O)NCCCc1cc([C@@H](C)N(C(=O)[C@H]2CNCCO2)C2CC2)sc1-c1ccccc1 [Example 197]
[A] 0.2

[Q] In one line, give reported IC50 of the entry COCCCn1cc(COC)c2c(C(C)C)nc([C@@H](C)N(C(=O)[C@H]3CNCCO3)C3CC3)cc21 [Example 153] .
[A] 2.2

[Q] Indicate its recorded IC50; the molecule in question is COC(=O)NCCCn1nc([C@@H](C)N(C(=O)[C@H]2CNCCO2)C2CC2)cc1-c1ccc(C)cn1 [Example 184]
[A] 0.5

[Q] Specify IC50 for COC(=O)NCCCc1cc([C@@H](C)N(C(=O)[C@H]2CNC[C@@H](C(F)(F)F)O2)C2CC2)nn1-c1ccccc1 [Example 367] and stop.
[A] 1.7

[Q] Supply recorded IC50 for COC[C@@H]1CNC[C@H](C(=O)N(C2CC2)[C@@H](C)c2nn(CCCNC(=O)OC)c(C3CCOCC3)c2F)O1 [Example 330] here.
[A] 0.3
